Values were extracted from patent US8026218.

system: guinea pig NK1 receptor (guinea pig, UniProt P30547 1-407)
Sequence (P30547 whole entry): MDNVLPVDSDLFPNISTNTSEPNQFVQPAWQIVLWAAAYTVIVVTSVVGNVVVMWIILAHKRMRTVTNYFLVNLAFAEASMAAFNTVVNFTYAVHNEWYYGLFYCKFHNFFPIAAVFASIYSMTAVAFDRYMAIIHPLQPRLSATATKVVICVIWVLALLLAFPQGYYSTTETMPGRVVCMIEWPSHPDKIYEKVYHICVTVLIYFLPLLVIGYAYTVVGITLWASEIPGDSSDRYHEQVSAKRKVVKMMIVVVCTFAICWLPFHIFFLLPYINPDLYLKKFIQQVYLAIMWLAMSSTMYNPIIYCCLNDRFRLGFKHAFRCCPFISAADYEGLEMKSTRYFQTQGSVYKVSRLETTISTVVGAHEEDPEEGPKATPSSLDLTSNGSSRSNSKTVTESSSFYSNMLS
assaySummary: cell-based or functional assay
Square brackets hold non-standard residues; d marks the D form. Primed or numbered codes have the meaning given here. Ends that are not written are not given here. * marks the point of attachment. Glc = O-glucosyl on Ser side chain (Ser(OGlu)/Ser(OGlc)); NH(3,5-(CF3)2-benzyl) = FC(F)(F)c1cc(CN*)cc(C(F)(F)F)c1; Glc″ = glucosyl on the serine side-chain oxygen; Nle = CCCC[C@H](N)C(=O)O
For each record, write down the corresponding GPI/LMMP SP antagonist Ke.
Numbers only here, please. The scale is nM.

[in] Find the recorded GPI/LMMP SP antagonist Ke belonging to Y[dA]GF[Nle]S(Glc″)LW-{NH(3,5-(CF3)2-benzyl)} (also called TY044) [TyrDAlaGlyPheNleSer(OGlu)LeuTrpNHBn(CF3)2] and report it.
[out] 18.4

[in] // returns reported GPI/LMMP SP antagonist Ke for input Y[dA]GF[Nle]PS(Glc)W-{NH(3,5-(CF3)2-benzyl)} (also called TY041) [TyrDAlaGlyPheNleProSer(OGlu)TrpNHBn(CF3)2]
[out] 1.8

[in] Which GPI/LMMP SP antagonist Ke value is on record for Y[dA]GFS(Glc)PLW-{NH(3,5-(CF3)2-benzyl)} (also called TY042) [TyrDAlaGlyPheSer(OGlu)ProLeuTrpNHBn(CF3)2] ?
[out] 2.83

[in] GPI/LMMP SP antagonist Ke for YAGFXPLW (D-Ala at 2; Nle at 5 (written X); C-terminal NH-3,5-Bzl(CF3)2 amide, also called TY045) [TyrDAlaGlyPheNleProLeuTrpNHBn(CF3)2] ?
[out] 40.8
